Cited source for all entries: PubChem BioAssay

Measured normalised cell number, listed per entry.
# MEASUREMENT DESCRIPTION: differential killing of epithelial or mesenchymal cells, primary screen, imaging, PC-3E GFP, TEM4-18 mCherry, co-culture (AID 1345086);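 note: cells exposed to compound for 72 h before imaging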
# APPLIED CONDITIONS: imaging cell counts, measured here: mesenchymal TEM4-18 mCherry cell survival, at 1 µM
Non-standard residues stand in square brackets, D forms with d. Residues, ends and D or L forms follow the SMILES beside them. pGlu = O=C1CC[C@@H](C(=O)O)N1; Thz = O=C(O)[C@@H]1CSCN1
READOUT: normalised cell number

MOLECULE	QUANTITATIVE RESULT
CO[C@@H]1[C@@H](O[C@@H]2O[C@H](C)[C@@H](O[C@H]3C[C@@](C)(O)[C@H](O)[C@H](C)O3)[C@H](N(C)C)[C@H]2O)[C@@H](CC=O)C[C@@H](C)[C@@H](O[C@H]2CC[C@H](N(C)C)[C@@H](C)O2)/C=C/C=C/C[C@H](C)OC(=O)C[C@H]1O	1.05
O=C(NCC1O[C@@H](OC2C(NC(=O)OCc3ccccc3)C[C@@H](NC(=O)OCc3ccccc3)[C@H](OC3OC(COS(=O)(=O)O)[C@@H](OS(=O)(=O)O)[C@H](NC(=O)OCc4ccccc4)[C@H]3OS(=O)(=O)O)[C@H]2OS(=O)(=O)O)[C@H](OS(=O)(=O)O)[C@@H](OS(=O)(=O)O)C1OS(=O)(=O)O)OCc1ccccc1 (stereo not given in full)	0.91
NCCCNCCCCNCCCN	1
C[C@@H]1C=C2C=C[C@@](C)(O)[C@](C)(C(=O)CCO)[C@H]2[C@@H](O)C1	0.91
C[C@H]1CC2C([C@@H](O)C[C@@]3(C)C2CC[C@]3(O)C(=O)CO)[C@@]2(C)C=CC(=O)C=C12 (stereo not given in full)	1.64
Clc1ccc(CCC(Cn2ccnc2)Sc2c(Cl)cccc2Cl)cc1 (stereo not given)	1.06
COC(=O)C[C@H]1C(C)(C)C(=O)[C@@H]2CC3C4=CC(=O)O[C@@H](c5ccoc5)[C@]4(C)CCC3C1(C)C2=O (stereo not given in full)	0.94
C[C@@H]1CC2C3C[C@H](F)C4=CC(=O)C=C[C@]4(C)[C@@]3(F)[C@@H](O)C[C@]2(C)[C@@]1(O)C(=O)CO (stereo not given in full)	1.33
CCCCC(=O)O[C@]1(C(=O)CO)CCC2C3CCC4=CC(=O)CC[C@]4(C)C3[C@@H](O)C[C@@]21C (stereo not given in full)	0.97
O=C(O)c1ccc2c(c1)OCO2	1.05
O=C(O)c1cc(=O)c(O)c2c(O)c(O)c(O)cc2c1	0.94
CCOC(=O)COc1ccc2c(=O)cc(-c3ccccc3)oc2c1	0.85
O=c1cccc2ccc(O)c(O)c2c1O	1.02
CC1CCC2OC2C/C=C/C(=O)c2c(O)cc(O)cc2CC(=O)O1 (stereo not given)	0.73
C[C@]12C=CC(=O)C=C1CCC1C2[C@@H](O)C[C@@]2(C)C1CC[C@]2(O)C(=O)COC(=O)CCC(=O)O (stereo not given in full)	1.14
CC(C)CCCC(C)[C@H]1CCC2C3C=CC4=CC(=O)CC[C@]4(C)C3CC[C@@]21C (stereo not given in full)	0.93
CCCCCC(=O)O[C@]1(C(C)=O)CCC2C3CCC4=CC(=O)CC[C@]4(C)C3CC[C@@]21C (stereo not given in full)	1.09
CC(=O)O[C@H]1C[C@@H](OC(C)=O)C(C)(C)C2C[C@@H](OC(C)=O)[C@]3(C)C(CC[C@@]4(C)[C@H](c5ccoc5)OC(=O)[C@H]5O[C@]543)[C@]21C (stereo not given in full)	1.02
OC[C@@H](O)C(O[C@@H]1O[C@H](CO)[C@H](O)[C@H](O)[C@H]1O)[C@H](O)[C@@H](O)CO (stereo not given in full)	1.06
CC(COc1ccccc1)NC(C)[C@H](O)c1ccc(O)cc1 (stereo not given in full)	1.29
C[C@H]1COC2=C1C(=O)C(=O)c1c2ccc2c1CCCC2(C)C	0.8
C=C(C)[C@@H]1CC[C@]2(CO)CC[C@]3(C)[C@H](CCC4[C@@]5(C)CC[C@H](O)C(C)(C)C5CC[C@]43C)C12 (stereo not given in full)	0.91
CC(=O)OCC(=O)[C@@]1(O)[C@H](OC(C)=O)CC2C3CCC4=CC(=O)C=C[C@]4(C)[C@@]3(F)[C@@H](O)C[C@@]21C (stereo not given in full)	1.17
CCC[C@@H]1C[C@@H](C(=O)N[C@@H](C2O[C@H](SC)[C@H](O)[C@@H](O)[C@H]2O)[C@H](C)Cl)N(C)C1 (stereo not given in full)	1.47
CCOC(=O)OC(C)OC(=O)C1N2C(=O)C(NC(=O)[C@H](N)c3ccccc3)C2SC1(C)C (stereo not given in full)	1.27
C[C@H]1CC[C@@H](C(C)(C)O)CC2=C1CC[C@@H]2C	0.91
O=C(/C=C/c1ccccc1)c1ccc(O)cc1O	1
NC(Cc1c[nH]c2ccccc12)C(=O)O (stereo not given)	1.22
CC(=O)O[C@H]1CC[C@@]2(C)C(CC[C@]3(C)C2CC=C2C4CC(C)(C)CC[C@]4(C)CC[C@]23C)C1(C)C (stereo not given in full)	1.15
CC(C)Nc1ncccn1	1.03
CC1=CC2C(C(C)C)CCC(C)(O)C2CC1 (stereo not given)	1.11
CC1CCC2(OC1)OC1CC3C4CC[C@H]5C[C@@H](O)CC[C@]5(C)C4CC(=O)[C@]3(C)C1C2C (stereo not given in full)	1.27
Cc1c(C)c2c(c(C)c1O)CCC(C)(C(=O)O)O2 (stereo not given)	0.98
O=C1CC[C@@H](C(=O)N2CSC[C@H]2C(=O)O)N1 ([pGlu]-[Thz]-OH)	0.93
CC1=CC(=O)C2C(C)(C)CCC[C@]2(C)[C@@]1(O)CCc1ccoc1 (stereo not given in full)	0.96
